# MEASUREMENT NOTES: Partition coefficient, log D of the compound at pH 7.4 by HPLC analysis
# Assay type: physicochemical
# PROTOCOL CONDITIONS: octanol/water
READOUT LABEL: logD

{"columns": ["SMILES INPUT", "RESULT NUMBER"],
 "data": [
  ["CCOC(=O)C1=C(C)N/C(=C/c2cc(C)n(-c3ccc(F)cc3F)c2C)C1=O", 3],
  ["CCOC(=O)C1=C(C)N/C(=C/c2cc(C)n(-c3ccc(Br)cc3)c2C)C1=O", 3.4],
  ["CC1=C(C(=O)O)C(=O)/C(=C\\c2cc(C)n(-c3ccccc3C(F)(F)F)c2C)N1", 5.8]
]}

1: CCOC(=O)C1=C(C)N/C(=C/c2cc(C)n(-c3ccc(N4CCOCC4)cc3)c2C)C1=O
2: CCOC(=O)C1=C(C)N/C(=C/c2cc(C)n(-c3ccc(CN4CCCCC4)cc3)c2C)C1=O
3: CCOC(=O)C1=C(C)N/C(=C/c2cc(C)n(-c3cccnc3)c2C)C1=O
Challenge: Ascending by logD, please. Please respond by ranking the labels in the order requested.
Response given: 3, 1, 2

P: CCOC(=O)C1=C(C)N/C(=C/c2cc(C)n(-c3ccc(N(C)C)cc3)c2C)C1=O
Q: CCOC(=O)C1=C(C)N/C(=C/c2cc(C)n(-c3ccc(CN4CCOCC4)cc3)c2C)C1=O
Challenge: When the recorded logD values are compared, which is smaller: that of P or that of Q ? Lab note: record the label of whichever item you select.
Response given: P

A: CCOC(=O)C1=C(O)/C(=C\c2cc(C)n(-c3ccc(F)cc3)c2C)N=C1C
B: CCOC(=O)C1=C(C)N/C(=C/c2cc(C)n(-c3ccc(CN(C)C)cc3)c2C)C1=O
Challenge: Kindly identify which of A and B has the larger recorded logD value. Lab note: record the label of whichever item you select.
Response given: B
